- TEST DETAILS: gradient 5% acetonitrile 3 min, to 50% in 2 min, to 85% in 15 min, held 3 min, 100 µL/min
- DETAILS: column: Zorbax Extend-C18 2.1 x 50 mm; eluents: water / acetonitrile, 0.1% formic acid
Measured RP-LC retention time of individual entries
Unit s implied. Number only.

May I ask what RP-LC retention time has been recorded for COc1ccc(N2CCN(S(=O)(=O)c3cn(C)nc3C)CC2)cc1 ?
719

May I ask what RP-LC retention time has been recorded for Cc1cc(C)cc(NC(=O)CN2CCN(Cc3ccc(F)cc3)C(=O)C2=O)c1 ?
798

###

- TEST DETAILS: gradient 5% acetonitrile 3 min, to 50% in 2 min, to 85% in 15 min, held 3 min, 100 µL/min
- DETAILS: column: Zorbax Extend-C18 2.1 x 50 mm; eluents: water / acetonitrile, 0.1% formic acid
Measured RP-LC retention time of individual entries
Unit s implied. Number only.

Before answering, review these 5 worked examples.
• Cc1cc(Cl)ccc1NS(=O)(=O)c1ccc(-c2c(C)noc2C)cc1 = 1030
• O=C(Cn1c(=O)cc(-c2nc(C3CC3)no2)c2ccccc21)NCCc1ccc(Cl)cc1 = 1000
• Cc1ccc(-c2nc(Nc3ccccc3F)sc2CC(=O)O)cc1 = 960
• COc1ccc(-c2nnc(-c3cc(S(=O)(=O)N4CCOCC4)ccc3Cl)o2)cc1 = 950
• Cc1cc(C(=O)Nc2ccccc2Cl)nc2cc(-c3ccco3)nn12 = 1280

Please find the next compound below.
May I ask what RP-LC retention time has been recorded for CCS(=O)(=O)Nc1ccc(C2(C(=O)NCC(C)C)CCCCC2)cc1 ?
879

###

- TEST DETAILS: gradient 5% acetonitrile 3 min, to 50% in 2 min, to 85% in 15 min, held 3 min, 100 µL/min
- DETAILS: column: Zorbax Extend-C18 2.1 x 50 mm; eluents: water / acetonitrile, 0.1% formic acid
OUTCOME MEASURE: RP-LC retention time
# output: number + unit

• Cc1cccc(S(=O)(=O)Nc2cc(-c3cn4cccc(C)c4n3)ccc2C)c1 = 695 s
• Fc1ccccc1-c1ccc(CNCc2ccc3c(c2)OCO3)o1 = 695 s

Please find the next compound below.
May I ask what RP-LC retention time has been recorded for COc1ccc(NC(=O)Cn2cnc3nc(N4CCC(C(=O)NC5CC5)CC4)sc3c2=O)cc1 ?
681 s

###

- TEST DETAILS: gradient 5% acetonitrile 3 min, to 50% in 2 min, to 85% in 15 min, held 3 min, 100 µL/min
- DETAILS: column: Zorbax Extend-C18 2.1 x 50 mm; eluents: water / acetonitrile, 0.1% formic acid
OUTCOME MEASURE: RP-LC retention time
# output: number + unit

- COCCC(=O)N1CCCn2cc(-c3cccc(C#N)c3)nc21: 639 s
- Cc1ccc(-c2ccc(N3CCCC(C(=O)NCc4ccco4)C3)nn2)cc1C (centres undefined): 719 s

May I ask what RP-LC retention time has been recorded for O=C(c1cccs1)N1CCC2(CC1)NC(=O)N(Cc1ccccc1Cl)C2=O ?
821 s

May I ask what RP-LC retention time has been recorded for COc1ccc(OCc2noc(CNC(=O)NCc3ccc(F)cc3)n2)cc1 ?
770 s

###

- TEST DETAILS: gradient 5% acetonitrile 3 min, to 50% in 2 min, to 85% in 15 min, held 3 min, 100 µL/min
- DETAILS: column: Zorbax Extend-C18 2.1 x 50 mm; eluents: water / acetonitrile, 0.1% formic acid
Measured RP-LC retention time of individual entries
Unit s implied. Number only.

* O=c1c2ccccc2n(Cc2nc(-c3ccccc3)no2)c(=O)n1CC1CCCO1 (centres undefined) | 978
* COc1ccc(-c2nnc(Cc3nc(-c4ccccc4Cl)no3)o2)cc1 | 973
* CCS(=O)(=O)N1CC(=O)N(c2ccc(C)c(C)c2)C(C)(C(=O)NC2CCCCCC2)C1 (centres undefined) | 979

Please find the next molecule below.
May I ask what RP-LC retention time has been recorded for CC1CCN(S(=O)(=O)c2ccc(-c3nnc(C4CCC4)o3)o2)CC1 ?
1030

###

- TEST DETAILS: gradient 5% acetonitrile 3 min, to 50% in 2 min, to 85% in 15 min, held 3 min, 100 µL/min
- DETAILS: column: Zorbax Extend-C18 2.1 x 50 mm; eluents: water / acetonitrile, 0.1% formic acid
Checkbox rule: RP-LC retention time lower than 800 s = satisfied; RP-LC retention time not lower than 800 s = not satisfied.

// known answers, use as guide
* O=C(CN1C(=O)C2CCCCN2c2ccc(S(=O)(=O)N3CCCC3)cc21)NCc1cccnc1 (stereo not given) | satisfied
* COc1ccc(N2CCN(c3nccc(-n4nc(C)cc4C)n3)CC2)cc1 | not satisfied
* CCOC(=O)N1CCC(NC(=O)CCc2cc3cc(C)ccc3[nH]c2=O)CC1 | satisfied

Find out if reported RP-LC retention time for CCCNC(=O)Cn1cnc2sc(C(=O)NC3CCCC(C)C3C)c(C)c2c1=O (stereo not given) is less than 800 s
not satisfied

###

- TEST DETAILS: gradient 5% acetonitrile 3 min, to 50% in 2 min, to 85% in 15 min, held 3 min, 100 µL/min
- DETAILS: column: Zorbax Extend-C18 2.1 x 50 mm; eluents: water / acetonitrile, 0.1% formic acid
Answer false if RP-LC retention time is under 700 s, and true if it is 700 s or more.

Is the recorded value of RP-LC retention time equal to or greater than 700 s for this molecule? CC(C)NC(=O)N1CCCC(c2nc(C3CCOCC3)no2)C1 (stereo not given)
false

Is the recorded value of RP-LC retention time equal to or greater than 700 s for this molecule? O=C(Nc1cc(F)ccc1F)N1CCc2nc[nH]c2C1
false

Is the recorded value of RP-LC retention time equal to or greater than 700 s for this molecule? O=S(=O)(c1cccn2cnnc12)N(Cc1cccc(F)c1)c1ccc(F)c(F)c1
true

Is the recorded value of RP-LC retention time equal to or greater than 700 s for this molecule? O=C(CCc1nnc2ccc(NCc3ccccc3)nn12)N1CCN(c2ccccn2)CC1
false

Is the recorded value of RP-LC retention time equal to or greater than 700 s for this molecule? O=C(NC1CCN(c2cc(-c3ccc(F)cc3)[nH]n2)C1)c1cccc(F)c1 (stereo not given)
true

###

- TEST DETAILS: gradient 5% acetonitrile 3 min, to 50% in 2 min, to 85% in 15 min, held 3 min, 100 µL/min
- DETAILS: column: Zorbax Extend-C18 2.1 x 50 mm; eluents: water / acetonitrile, 0.1% formic acid
OUTCOME MEASURE: RP-LC retention time (s)
Unit s implied. Number only.

Before answering, review these 3 worked examples.
• COc1ccc(NC(=O)COc2cc(C)nc(N3CCN(c4ccccc4)CC3)n2)cc1 = 781
• Cc1nn(C)c(=O)c2cc(S(=O)(=O)NCc3ccc(Cl)cc3)cn12 = 822
• CCC(Oc1ccc(=O)n(-c2ccc(F)cc2)n1)C(=O)NCCC(C)C (centres undefined) = 804

Please find the next molecule below.
May I ask what RP-LC retention time has been recorded for COc1ccc(C2(C(=O)NCC34CCCC=C3NC(=O)CC4)CC2)cc1 (centres undefined) ?
776

###

- TEST DETAILS: gradient 5% acetonitrile 3 min, to 50% in 2 min, to 85% in 15 min, held 3 min, 100 µL/min
- DETAILS: column: Zorbax Extend-C18 2.1 x 50 mm; eluents: water / acetonitrile, 0.1% formic acid
Each entry falls into one class according to its RP-LC retention time; the ranges are band 1: < 700 s; band 2: ≥ 700 s and < 900 s; band 3: ≥ 900 s

// known answers, use as guide
• Cc1cccc(C)c1Nc1c(-c2c(F)cccc2Cl)nc2cnccn12 = band 2
• CN1C(=O)c2[nH]nc(-c3ccccc3)c2C1c1ccc(O)cc1 (stereo not drawn) = band 1
• Nc1c(C(=O)Nc2ccccc2F)sc2nc3c(cc12)CCCC3 = band 3
• CCOc1cc(=O)n2c(c1C(=O)Nc1cc(F)ccc1Cl)CCCC2 = band 2

Category lookup for the compound COCc1nc2cccnc2n1C1CCN(C(=O)Nc2ccc3c(c2)OCCO3)CC1
band 1

Category lookup for the compound Cn1cc2c(n1)c(=O)n(Cc1ccc(F)cc1)c1nn(Cc3ccccc3F)c(=O)n21
band 3

Category lookup for the compound COc1ccccc1OCC(=O)Nc1cc(-c2ccccn2)no1
band 2

Category lookup for the compound COc1cc(CC(=O)N2CCc3cc(-c4csc(C)n4)ccc32)cc(OC)c1
band 3

Category lookup for the compound Cc1sc(-c2noc(C3CCC3)n2)cc1S(=O)(=O)N1CCC(C(=O)N2CCOCC2)CC1
band 3

Category lookup for the compound O=C(Nc1cccnc1OC1CCNCC1)C1(c2ccccc2)CC1
band 1

Category lookup for the compound O=C(C1CCCN(c2cnc3nccnc3c2)C1)N1CCN(c2ccccc2F)CC1 (stereo not drawn)
band 2
